Biological target: T1, MICA004.His (human MICA*004 alpha 3 domain, His tagged) (human)
T1 construct: also called huMICA*004 alpha 3-his
T1 chain: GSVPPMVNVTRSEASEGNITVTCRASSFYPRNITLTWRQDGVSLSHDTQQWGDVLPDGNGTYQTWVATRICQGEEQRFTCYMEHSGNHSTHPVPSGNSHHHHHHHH
Experiment: SPR, antibody captured;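 also: SPR with antibody held by surface-bound anti-Fc while His-tagged alpha three domains flow over, Kd derived by fitting a one-to-one binding model to sensograms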
# note: boundary value 5 nM maps to Condition not met; Kd below it maps to Condition met

>>> class_name("6E12.5 (antibody, V domains shown, Mouse hybridoma antibody; constant regions differ by assay) VH: EVQLVESGGGLVKPGGSLKLSCAASGFTFSDYYMYWVRQTPEKRLEWVATISDGITYTYYSDSVRGRFTISRDNAENTLYLQMSSLKSEDTAMYYCSKGGGSTARGALDFWGQGTSVTVSS VL: DIQMNQSPSSLSASLGDTITITCHASQNIHVWLSWYQQKPGNIPKLLIYGASHLHTGVPSRFSGRGSGTGFTLTISSLQPEDIATYYCLQGQSYPLTFGSGTKVEIK")
"Condition met"
>>> class_name("1D5 (antibody, V domains shown, Mouse variable domains; constant regions differ by assay (human IgG1 or mouse IgG2a); also called anti-MIC 1D5) VH: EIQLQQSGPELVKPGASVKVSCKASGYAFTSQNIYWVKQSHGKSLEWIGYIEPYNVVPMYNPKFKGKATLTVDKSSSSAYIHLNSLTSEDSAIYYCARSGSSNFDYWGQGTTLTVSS VL: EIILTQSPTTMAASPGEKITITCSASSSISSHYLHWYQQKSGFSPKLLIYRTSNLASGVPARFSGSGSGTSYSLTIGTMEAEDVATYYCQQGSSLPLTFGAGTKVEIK")
"Condition met"
>>> class_name("13A9 (antibody, V domains shown, Mouse variable domains; constant regions differ by assay) VH: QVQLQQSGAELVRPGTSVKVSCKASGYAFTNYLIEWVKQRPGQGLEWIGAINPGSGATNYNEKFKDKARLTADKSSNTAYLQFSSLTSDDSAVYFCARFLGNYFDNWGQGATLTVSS VL: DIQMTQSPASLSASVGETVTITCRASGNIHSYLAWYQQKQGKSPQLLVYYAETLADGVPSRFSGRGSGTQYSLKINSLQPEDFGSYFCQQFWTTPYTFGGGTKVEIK")
"Condition met"
>>> class_name("32D2 (antibody, V domains shown, Mouse hybridoma antibody; constant regions differ by assay) VH: DVHLVESGGGLVQPGGSRKLSCAASGFTFNTFGMNWVRQAPEKGLEWVAYINSGSNTIYYADTVKGRFTISRDNPKNTLFLQMTSLRSEDTAMYYCTRWEPVTGGFSYWGQGTLVTVSA VL: QIVLTQSPAFKSSSLGERVTMTCTASSSISSSYLHWYQQKPGSSPKLWIYTTSNLASGVPARFSGSGSGTSYSLTISTMEAEDAATYYCHQHHRSPFTFGSGTKVEIK")
"Condition met"
>>> class_name("20G11 (antibody, V domains shown, Mouse hybridoma antibody; constant regions differ by assay) VH: DVQLVESGGGLVQPGGSRKLSCAASGFTFSTFGIHWVRQAPEKGLEWVAYISYDSRTIYYADTVKGRFTISRDNPKNTLFLQMTSLRSEDTAMYYCARWAYEGGVNYFDNWGQGTTLTVSS VL: QIVLTQSPAIMSASLGERVTMTCTATSGVSSSYLHWYQQKPGSSPKLWIYSSSNLASGVPARFSGSGSGTSYSLTIGSMEAEDAATYYCHQFHRSPLTFGTGTKVEIK")
"Condition met"
>>> class_name("6F8.7 (antibody, V domains shown, Mouse hybridoma antibody; constant regions differ by assay) VH: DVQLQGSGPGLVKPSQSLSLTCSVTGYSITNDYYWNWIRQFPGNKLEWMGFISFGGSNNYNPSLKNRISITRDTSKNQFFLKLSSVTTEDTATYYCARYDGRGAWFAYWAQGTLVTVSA VL: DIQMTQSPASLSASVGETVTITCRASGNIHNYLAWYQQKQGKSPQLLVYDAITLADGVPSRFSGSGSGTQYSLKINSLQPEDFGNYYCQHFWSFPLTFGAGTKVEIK")
"Condition not met"
>>> class_name("6E1.1.12 (antibody, V domains shown, Mouse hybridoma antibody; constant regions differ by assay) VH: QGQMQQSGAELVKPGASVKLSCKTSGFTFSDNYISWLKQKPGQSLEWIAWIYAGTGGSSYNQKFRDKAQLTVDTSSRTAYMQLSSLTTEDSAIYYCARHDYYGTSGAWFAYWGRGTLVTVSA VL: DVLMTQTPLSLPVSLGDQASISCRSSQHIVHSNENTYLEWYLQKPGQSPKLLIYKVSNRFSGVPDRFSGSGSGTDFTLKISRVEAEDLGVYYCFQGSHVPWTFGGGTKVEIK")
"Condition not met"
>>> class_name("18G3 (antibody, V domains shown, Mouse variable domains; constant regions differ by assay) VH: VQLQESGPGLVKPSQSLSLTCNVTGYSITGDYAWNWIRQFPGNKLEWIGYIGYTGSTTYNPSLKSRVSITRDTSKNQFFLQLNSVTPEDTATYYCARWRNWAMDYWGLGTSVTVSS VL: DIQMTQTPSSLSASLGDRVTISCRANQDISHYLNWYQQKPDGAVKLLIYYTSRIHSGVPSRFSGSGSGTDYSLTIANLEQEDVATYFCQQGNTPPTTFGGGTKVEIK")
"Condition met"
>>> class_name("7A3.1.9 (antibody, V domains shown, Mouse hybridoma antibody; constant regions differ by assay) VH: QVQLKESGPGLVAPSQSLSITCTVSGFALTGSGVNWVRQPPGKGLEWLGMIWGDGNTDYNSALKSRLSISKDNSKSQIFLKMNSLQTDDTARYYCARGAHYGKRWYFDVWGAGTTVTVSS VL: DIQMTQTTSSLSASLGDRVTISCSASQGINNYLNWYQQKPDGTVKLLIYYTSSLPSGVPSRFSGSGSGTDYSLTISNLEPEDIATYYCQQYSKLPPTFGGGTKVEIK")
"Condition not met"
